Source: patent US11773087B2

Molecular target: UniProt:P43220
Test: GLP-1R cAMP assay (HTRF, HEK293 cells expressing GLP-1R)
Conditions: agonistic activity, GLP-1R HEK293 cells
endpoint_label: EC50 (nM)
Give bare numbers, in nM.

Please review the entries below; each comes with its answer.
For O=C(O)c1ccc2nc(CN3CCC(c4ccccc4OCc4ccc(Cl)cc4Cl)CC3)n(C[C@@H]3CCO3)c2c1 [Compound 11] , what is its reported EC50?
2.9

Which EC50 value is on record for O=C(O)c1ccc2nc(CN3CCC(c4cccnc4OCc4ccc(Cl)cc4F)CC3)n(C[C@@H]3CCO3)c2c1 [Ref-02, reference compound] ?
1

More entries:
Returns the measured EC50 for the input molecule. Input: O=C(O)c1ccc2nc(CN3CCC(c4cc(F)ccc4OCc4ccc(Cl)cc4F)CC3)n(C[C@@H]3CCO3)c2c1 [Compound 14]
3.7

###

Test: Pharmacokinetic evaluation in rats (gavage)
Format: in vivo
Conditions: rat, 10 mg/kg single oral gavage, plasma
Description: Test Embodiment 2: Pharmacokinetic Evaluation in Rats The drug concentrations in the plasma of rats were tested at different times after the administration of the compounds by gavage using rats as test animals. The pharmacokinetic behavior of the compounds of the present disclosure in rats was studied and their pharmacokinetic characteristics were evaluated. […]
endpoint_label: Cmax (ng/mL)
Answers are plain numbers, in ng/mL.

Param item = O=C(O)c1ccc2nc(CN3CCC(c4cccc(OCc5ccc(Cl)cc5F)n4)CC3)n(C[C@@H]3CCO3)c2c1 [Ref-01, reference compound] ; retrieve measured Cmax.
105

Endpoint output: Cmax of O=C(O)c1ccc2nc(CN3CCC(c4cccc(F)c4OCc4ccc(Cl)cc4F)CC3)n(C[C@@H]3CCO3)c2c1 . Value?
90

Next, consider the following compound.
Endpoint output: Cmax of O=C(O)c1ccc2nc(CN3CCC(c4ccccc4OCc4ccc(Cl)cc4F)CC3)n(C[C@@H]3CCO3)c2c1 . Value?
1160

###

Field: half-life. Provide a value for each of the compounds that follow.
Assay: Pharmacokinetic evaluation in rats (gavage)
Type: in vivo
Settings: rat, 10 mg/kg single oral gavage, plasma
Give bare numbers, in h.

See these solved cases before continuing.
Which half-life value belongs to O=C(O)c1ccc2nc(CN3CCC(c4cccc(OCc5ccc(Cl)cc5F)n4)CC3)n(C[C@@H]3CCO3)c2c1 [Ref-01, reference compound] ?
3.2

Would you mind telling me what half-life value was observed for N#Cc1ccc(COc2cccc(C3CCN(Cc4nc5ccc(C(=O)O)cc5n4C[C@@H]4CCO4)CC3)n2)c(F)c1 [PF-06882961, reference compound] ?
6.88

List half-life for every entry below, keeping the order given.
1. O=C(O)c1ccc2nc(CN3CCC(c4ccccc4OCc4ccc(Cl)cc4F)CC3)n(C[C@@H]3CCO3)c2c1
2. O=C(O)c1ccc2nc(CN3CCC(c4cccc(F)c4OCc4ccc(Cl)cc4F)CC3)n(C[C@@H]3CCO3)c2c1
3. Cc1ccc(COc2ccccc2C2CCN(Cc3nc4ccc(C(=O)O)cc4n3C[C@@H]3CCO3)CC2)c(F)c1

1: 2.58; 2: 2.11; 3: 2.68

Value lookup for half-life; key = O=C(O)c1ccc2nc(CN3CCC(c4cccnc4OCc4ccc(Cl)cc4F)CC3)n(C[C@@H]3CCO3)c2c1 [Ref-02, reference compound]
5.52

###

Assay: Pharmacokinetic evaluation in rats (gavage)
Assay type: in vivo
Settings: rat, 10 mg/kg single oral gavage, plasma
endpoint_label: Cmax (ng/mL)
Give bare numbers, in ng/mL.

Recorded Cmax, per entry:
Sample O=C(O)c1ccc2nc(CN3CCC(c4cccnc4OCc4ccc(Cl)cc4F)CC3)n(C[C@@H]3CCO3)c2c1 [Ref-02, reference compound] — what was its Cmax?
171

Can you look up the measured Cmax of Cc1ccc(COc2ccccc2C2CCN(Cc3nc4ccc(C(=O)O)cc4n3C[C@@H]3CCO3)CC2)c(F)c1 [Compound 12] for me?
1020

Next:
For the compound shown here, N#Cc1ccc(COc2cccc(C3CCN(Cc4nc5ccc(C(=O)O)cc5n4C[C@@H]4CCO4)CC3)n2)c(F)c1 [PF-06882961, reference compound] , give the reported Cmax.
55

###

Assay: Pharmacokinetic evaluation in rats (gavage)
Format: in vivo
Details: rat, 10 mg/kg single oral gavage, plasma
endpoint_label: Tmax (min)
Give bare numbers, in min.

Which Tmax value belongs to O=C(O)c1ccc2nc(CN3CCC(c4cccc(F)c4OCc4ccc(Cl)cc4F)CC3)n(C[C@@H]3CCO3)c2c1 ?
49.8

Give the measured Tmax of Cc1ccc(COc2ccccc2C2CCN(Cc3nc4ccc(C(=O)O)cc4n3C[C@@H]3CCO3)CC2)c(F)c1 .
15

What value of Tmax has been reported for the following molecule? O=C(O)c1ccc2nc(CN3CCC(c4ccccc4OCc4ccc(Cl)cc4F)CC3)n(C[C@@H]3CCO3)c2c1
15

Endpoint output: Tmax of O=C(O)c1ccc2nc(CN3CCC(c4cccc(OCc5ccc(Cl)cc5F)n4)CC3)n(C[C@@H]3CCO3)c2c1 [Ref-01, reference compound] . Value?
19.8

I'm hoping you can list Tmax for every molecule here, please.
1. N#Cc1ccc(COc2cccc(C3CCN(Cc4nc5ccc(C(=O)O)cc5n4C[C@@H]4CCO4)CC3)n2)c(F)c1 [PF-06882961, reference compound]
2. O=C(O)c1ccc2nc(CN3CCC(c4cccnc4OCc4ccc(Cl)cc4F)CC3)n(C[C@@H]3CCO3)c2c1 [Ref-02, reference compound]

1: 25.2; 2: 15

###

Assay: Pharmacokinetic evaluation in rats (gavage)
Assay type: in vivo
Conditions: rat, 10 mg/kg single oral gavage, plasma
endpoint_label: AUC(0-inf) (ng·h/mL)
Give bare numbers, in ng·h/mL.

In the examples that follow, each entry is paired with its recorded AUC(0-inf).
Given the molecule Cc1ccc(COc2ccccc2C2CCN(Cc3nc4ccc(C(=O)O)cc4n3C[C@@H]3CCO3)CC2)c(F)c1 , what is its reported AUC(0-inf)?
1320

State the recorded AUC(0-inf) for this entry: O=C(O)c1ccc2nc(CN3CCC(c4ccccc4OCc4ccc(Cl)cc4F)CC3)n(C[C@@H]3CCO3)c2c1
1030

Which AUC(0-inf) reading was recorded for the molecule O=C(O)c1ccc2nc(CN3CCC(c4cccc(F)c4OCc4ccc(Cl)cc4F)CC3)n(C[C@@H]3CCO3)c2c1 ?
417

Record AUC(0-inf) per entry; entries follow.
1. N#Cc1ccc(COc2cccc(C3CCN(Cc4nc5ccc(C(=O)O)cc5n4C[C@@H]4CCO4)CC3)n2)c(F)c1 [PF-06882961, reference compound]
2. O=C(O)c1ccc2nc(CN3CCC(c4cccnc4OCc4ccc(Cl)cc4F)CC3)n(C[C@@H]3CCO3)c2c1 [Ref-02, reference compound]

1. 179
2. 229

I'd like to know its AUC(0-inf). The molecule in question is O=C(O)c1ccc2nc(CN3CCC(c4cccc(OCc5ccc(Cl)cc5F)n4)CC3)n(C[C@@H]3CCO3)c2c1 [Ref-01, reference compound]
351

###

Please respond with reported EC50 for every item in the list.
Biological target: human GLP-1R receptor (Homo sapiens)
Sequence (P43220 24-463): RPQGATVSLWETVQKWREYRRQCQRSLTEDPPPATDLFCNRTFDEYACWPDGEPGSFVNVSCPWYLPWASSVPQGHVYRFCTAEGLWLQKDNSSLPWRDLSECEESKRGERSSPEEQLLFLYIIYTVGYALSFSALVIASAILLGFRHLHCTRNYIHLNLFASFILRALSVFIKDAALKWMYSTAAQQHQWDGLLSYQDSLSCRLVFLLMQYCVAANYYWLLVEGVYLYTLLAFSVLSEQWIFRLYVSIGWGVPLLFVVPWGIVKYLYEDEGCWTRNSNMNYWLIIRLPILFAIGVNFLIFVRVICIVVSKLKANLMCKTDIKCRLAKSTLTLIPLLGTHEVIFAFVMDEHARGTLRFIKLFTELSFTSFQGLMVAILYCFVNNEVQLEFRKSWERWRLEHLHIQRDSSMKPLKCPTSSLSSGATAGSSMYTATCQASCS
Test: GLP-1R cAMP assay (HTRF, HEK293 cells expressing GLP-1R)
Details: agonistic activity, GLP-1R HEK293 cells

Please look up its EC50: CCn1cncc1Cn1c(CN2CCC(c3ccccc3OCc3ccc(Cl)cc3F)CC2)nc2ccc(C(=O)O)cc21
> 100 nM

// returns reported EC50 for input CC1CN(Cc2nc3ccc(C(=O)O)cc3n2C[C@@H]2CCO2)CCC1c1ccccc1OCc1ccc(Cl)cc1F (stereo partly shown)
> 100 nM

State the recorded EC50 for this entry: O=C(O)c1ccc2nc(CC3CCN(c4ccccc4OCc4ccc(Cl)cc4F)CC3)n(C[C@@H]3CCO3)c2c1
> 100 nM

If you can, please state the reported EC50 value of O=C(O)c1ccc2nc(C3(N4CCC(c5ccccc5OCc5ccc(Cl)cc5F)CC4)CC3)n(C[C@@H]3CCO3)c2c1 .
> 100 nM

State the recorded EC50 for this entry: Cn1c(CN2CCC(c3ccccc3OCc3ccc(Cl)cc3F)CC2)nc2ccc(C(=O)O)cc21
> 100 nM

Kindly give each listed record's EC50.
1. O=C(O)c1ccc2nc(CC3CCC(c4ccccc4OCc4ccc(Cl)cc4F)CC3)n(C[C@@H]3CCO3)c2c1 (stereo partly shown)
2. CC1CN(Cc2nc3ccc(C(=O)O)cc3n2C[C@@H]2CCO2)CC(C)C1c1ccccc1OCc1ccc(Cl)cc1F (stereo partly shown)
3. O=C(O)c1ccc2nc(CN3CCC(c4ccccc4OCc4ccc(Cl)cc4F)CC3)n(C[C@@H]3CCO3)c2c1

1: > 100 nM; 2: > 100 nM; 3: 0.9 nM

###

So I've got a bunch of molecules here, and I need their EC50 values.
Biological target: human GLP-1R receptor (Homo sapiens)
Assay: GLP-1R cAMP assay (HTRF, HEK293 cells expressing GLP-1R)
Settings: agonistic activity, GLP-1R HEK293 cells
One number for each entry, in nM.

Please report the recorded EC50 for O=C(O)c1ccc2nc(CN3CCC(c4ccc(F)cc4OCc4ccc(Cl)cc4F)CC3)n(C[C@@H]3CCO3)c2c1 .
5.8

Using the record for O=C(O)c1ccc2nc(CN3CCC(c4ccccc4NCc4ccc(Cl)cc4F)CC3)n(C[C@@H]3CCO3)c2c1 , report its EC50.
7.5

Give one value of EC50 per listed molecule.
1. CC(Oc1ccccc1C1CCN(Cc2nc3ccc(C(=O)O)cc3n2C[C@@H]2CCO2)CC1)c1ccc(Cl)cc1F (some centres unmarked)
2. N#Cc1ccc(COc2ccccc2C2CCN(Cc3nc4ccc(C(=O)O)cc4n3C[C@@H]3CCO3)CC2)c(F)c1

[26, 3.4]
